Experiment: Therapeutic index, ratio of cytotoxicity/antiplasmodial activity
Format: cell-based
Details: human, KB cells; read-out: Ratio IC50
molecules and their reported selectivity ratio
I only need the number, thanks.

molecule=O=C(O)CCCCN1CSC(=S)N(CCCCCCN2CN(CCCCC(=O)O)CSC2=S)C1 value_observed=1
molecule=CC(C)(CN1CN(CCCCC(=O)O)CSC1=S)CN1CN(CCCCC(=O)O)CSC1=S value_observed=0.9
molecule=O=C(O)CN1CSC(=S)N(CCCCCCN2CN(CC(=O)O)CSC2=S)C1 value_observed=0.8

Item: NC(=O)CCC(C(=O)O)N1CSC(=S)N(CCCCCCN2CN(C(CCC(N)=O)C(=O)O)CSC2=S)C1 (configuration not stated) | selectivity ratio: 4.7

Item: "O=C(O)CCN1CSC(=S)N(CCCCCCN2CN(CCC(=O)O)CSC2=S)C1" | selectivity ratio: 0.9

Item: "O=C(O)CCCN1CSC(=S)N(CCCCCCN2CN(CCCC(=O)O)CSC2=S)C1" | selectivity ratio: 2
